- procedureText: AUC (0 to t) in Balb mouse at 2.5 mg/kg, ip
- Assay type: ADME, organism-based
- Parameters: dose 2.5 mg/kg, route intraperitoneal
- conditionSet: plasma
In this section we review reported AUC(0-t) values for a set of compounds.
# output: bare number, implied unit µM·h

chemicalString | AUC(0-t), µM·h
Cc1c([N+](=O)[O-])cc(C(=O)N[C@@H](C)c2ccc(F)cc2)cc1[N+](=O)[O-] | 0.351

As a next step, examine the compound that follows.
Asked: Tell me the measured AUC(0-t) of Cc1ccc([C@@H](C)NC(=O)c2cc([N+](=O)[O-])c(C)c([N+](=O)[O-])c2)cc1 , please.
Given back: 0.431

* * *

In this section we review reported Cmax values for a set of compounds.
- procedureText: Cmax in Balb mouse at 2.5 mg/kg, ip
- Type: ADME, organism-based
- Set-up: dose 2.5 mg/kg, route intraperitoneal
- conditionSet: in vivo
# output: bare number, implied unit nM

chemicalString | endpointLabel | measurement
Cc1ccc([C@@H](C)NC(=O)c2cc([N+](=O)[O-])c(C)c([N+](=O)[O-])c2)cc1 | Cmax | 177

As a next step, examine the compound that follows.
Asked: Tell me the measured Cmax of Cc1c([N+](=O)[O-])cc(C(=O)N[C@@H](C)c2ccc(F)cc2)cc1[N+](=O)[O-] , please.
Given back: 216

* * *

- procedureText: Bioavailability in Balb mouse at 2.5 mg/kg, ip
- Type: ADME, organism-based
- conditionSet: in vivo
endpointLabel: bioavailability (%)
# output: bare number, implied unit %

chemicalString | measurement
Cc1ccc([C@@H](C)NC(=O)c2cc([N+](=O)[O-])c(C)c([N+](=O)[O-])c2)cc1 | 49

As a next step, examine the compound that follows.
Asked: Tell me the measured bioavailability of Cc1c([N+](=O)[O-])cc(C(=O)N[C@@H](C)c2ccc(F)cc2)cc1[N+](=O)[O-] , please.
Given back: 35

* * *

- procedureText: AUC (0 to t) in Balb mouse at 1 mg/kg, iv
- Format: ADME, organism-based
- Set-up: dose 1 mg/kg, route intravenous
- conditionSet: plasma
In this section we review reported AUC(0-t) values for a set of compounds.
# output: bare number, implied unit µM·h

chemicalString | AUC(0-t) [µM·h]
Cc1ccc([C@@H](C)NC(=O)c2cc([N+](=O)[O-])c(C)c([N+](=O)[O-])c2)cc1 | 0.352

Asked: Tell me the measured AUC(0-t) of Cc1c([N+](=O)[O-])cc(C(=O)N[C@@H](C)c2ccc(F)cc2)cc1[N+](=O)[O-] , please.
Given back: 0.374

* * *

- procedureText: Clearance in Balb mouse at 1 mg/kg, iv
- Assay type: ADME, organism-based
- Design: dose 1 mg/kg, route intravenous
- conditionSet: in vivo
endpointLabel: clearance (mL/min/kg)
# output: bare number, implied unit mL/min/kg

chemicalString | measurement
Cc1ccc([C@@H](C)NC(=O)c2cc([N+](=O)[O-])c(C)c([N+](=O)[O-])c2)cc1 | 134

As a next step, examine the compound that follows.
Asked: Tell me the measured clearance of Cc1c([N+](=O)[O-])cc(C(=O)N[C@@H](C)c2ccc(F)cc2)cc1[N+](=O)[O-] , please.
Given back: 111
